Each recorded value in this set is attributed to patent US20020155562A1.

Molecular target: glutathionylspermidine synthetase (GspS)
Test: Kinetic analysis of GspS by HPLC determination of the product Gsp
Type: biochemical, C. fasciculata
Conditions: inhibition of GspS, competitive with respect to ATP; no ATP regenerating system; 25.0° C., pH 7.5
Method: Production of starting material: C. fasciculata was grown in a medium previously described (27) in a 100-1 fermenter at 27° C. with continuous stirring (200 rpm) and aeration (0.1 vvm). […] HPLC-analysis was performed with a Jasco-HPLC-system consisting of an autosampler (851-AS), a pump (PU-980), a ternary gradient unit (LG-980-02), and a highly sensitive fluorescence detector (FP-920), which enabled a precise analysis of the small product peak in the presence of numerous other and larger ones. […]
measured-metric: Ki
Respond with a number, then the unit of measure.

input: For Nc1ncnc2c1ncn2[C@@H]1O[C@H](COP(=O)(O)OP(=O)(O)O)[C@@H](O)[C@H]1O [ADP] , what is its reported Ki?
output: 80 µM

----------
Target: glutathionylspermidine synthetase (GspS)
Test: Kinetic analysis of GspS by HPLC determination of the product Gsp
Format: biochemical, C. fasciculata
Settings: feed-back inhibition of GspS, competed by GSH; 25.0° C., pH 7.5
measured-metric: pKi
Please report pKi as the negative decimal logarithm of the molar concentration, giving only the number.

input: For N[C@@H](CCC(=O)N[C@@H](CS)C(=O)NCC(=O)NCCCCNCCCNC(=O)CNC(=O)[C@H](CS)NC(=O)CC[C@H](N)C(=O)O)C(=O)O [TSH, N^1, N^8-bis(glutathionyl)spermidine] , what is its reported pKi?
output: 3.32
